Tested on: A498 renal
Test: NCI tumour cell line growth inhibition, 48 h
measurementType: TGI (µM)
All answers are understood in µM, so give the number only.

### Prompt Can you look up the measured TGI of Cc1c(S(=O)(=O)/N=C(\N)Nc2ccc(Cl)cc2)sc2ccc(Cl)cc12 for me?
### Response 30.1

### Prompt Can you look up the measured TGI of O=C(N=Nc1cc(Cl)ccc1Cl)NNc1cc(Cl)ccc1Cl for me?
### Response 82.3

### Prompt Can you look up the measured TGI of CC[C@H]1CN2CCc3cc(OC)c(OC)cc3[C@@H]2C[C@@H]1C[C@H]1NCCc2cc(OC)c(OC)cc21 for me?
### Response 0.176

### Prompt Can you look up the measured TGI of CC(C)(C)NC(=O)/C(=C\Sc1ccccc1)c1ccc2c(c1)OCO2 for me?
### Response 59

### Prompt Can you look up the measured TGI of C(=N\NC1=NCCCN1)/c1ccc2ccccc2c1 for me?
### Response 20.8

### Prompt Can you look up the measured TGI of O=c1c(Cl)c(Cl)cnn1CCc1ccncc1 for me?
### Response 44.6

### Prompt Can you look up the measured TGI of NC(=O)c1cccc(Nc2nccc(Nc3cccc(F)c3)n2)c1 for me?
### Response 16

### Prompt Can you look up the measured TGI of Cc1ncc(C(=O)Nc2ccc(CN3CCN(C)CC3)c(C(F)(F)F)c2)cc1C#Cc1cnc(NC2CC2)c2ncccc12 for me?
### Response 5.56

###

System: HL-60(TB) leukemia
Experiment: NCI tumour cell line growth inhibition, 48 h; in the data active means GI50 below about 0.43 µM; inactive means the rest
Write down one outcome, taken from 1.0 (active), 0.0 (inactive)

Example cases with answers are listed next.
1. CCC(=C(c1ccc(OCCCN(C)C)cc1)c1ccc(OCCCN(C)C)cc1)c1ccc(Cl)cc1; 1.0
2. O=C(O)CCC(NC(=S)S)C(=O)O.[Na+].[Zn+2] (stereo not drawn); 0.0
3. COc1ccccc1-c1cc(=O)c2ccc(C)nc2[nH]1; 0.0
4. C=C1CC2(OC1=O)C(=O)N(CCCN1C(=O)C3(CC(=C)C(=O)O3)c3ccccc31)c1ccccc12 (stereo not drawn); 0.0
5. Cc1cc(Nc2nc(SCc3ccc(C(=O)Nc4ccc(F)cc4N)cc3)nn3cccc23)n[nH]1; 1.0

### Prompt What is the recorded call for this compound in the test? Cn1c([N+](=O)[O-])cnc1/C=C1\Oc2cc(Cl)ccc2C1=O
### Response 1.0

### Prompt What is the recorded call for this compound in the test? COCCOCCOCc1n(Cc2ccc3ccccc3n2)c2ccccc2[n+]1Cc1ccc2ccccc2c1
### Response 1.0

### Prompt What is the recorded call for this compound in the test? CCCCCCCCCCCC[n+]1ccccc1 (tested in a mixture with another compound)
### Response 1.0

### Prompt What is the recorded call for this compound in the test? O=C1c2cccnc2-c2nc(-c3ccncc3)cc3c2c1nc1ccccc13
### Response 0.0

### Prompt What is the recorded call for this compound in the test? C[C@H](Cn1ncnn1)Nc1ncc2cc(Oc3ccc(F)cc3F)c(=O)n(C)c2n1
### Response 0.0

### Prompt What is the recorded call for this compound in the test? CC1CCCc2c1nn(C(=O)/C=C(\N)c1ccccc1)c2N (stereo not drawn)
### Response 0.0

### Prompt What is the recorded call for this compound in the test? Cn1c(/C(C#N)=C/c2ccc3ccccc3c2)cc2ccccc21
### Response 1.0

### Prompt What is the recorded call for this compound in the test? c1ccc(Cn2cnc3ccc(-c4nc(-c5ccc6c(c5)ncn6C5CCCCC5)cn5ccnc45)cc32)cc1
### Response 0.0

### Prompt What is the recorded call for this compound in the test? CCC1=C[C@@H]2CN(C1)Cc1c([nH]c3ccccc13)[C@@](C(=O)OC)(c1cc3c(cc1OC)N(C)[C@H]1[C@@](O)(C(=O)OC)[C@H](OC(C)=O)[C@]4(CC)[C@@H]5C[C@@H]5CN5CC[C@]31[C@@H]54)C2
### Response 1.0

### Prompt What is the recorded call for this compound in the test? O=S(=O)(CCOCc1ccc(-c2ccc3ncnc(Nc4ccc(OCc5cccc(F)c5)c(Cl)c4)c3c2)o1)c1ccccc1
### Response 0.0

### Prompt What is the recorded call for this compound in the test? CC(C)c1ccc(C(=O)Nc2sc3c(CN(C)C)c(O)ccc3c2C(N)=O)cc1
### Response 0.0

### Prompt What is the recorded call for this compound in the test? COc1ccc2cc(-c3ccc(-c4ccc(C(=N)N)s4)s3)ccc2c1
### Response 0.0

### Prompt What is the recorded call for this compound in the test? NC(=O)C1(N2CCCCC2)CCN(CCCC(=O)c2ccc(F)cc2)CC1
### Response 0.0

###

Test system: OVCAR-8 ovarian
Assay: NCI tumour cell line growth inhibition, 48 h
measurementType: TGI

Example results:
1. Cn1c(/C(C#N)=C/c2ccc3ccccc3c2)cc2ccccc21; > 100 µM
2. O=C/C(=C(/Cl)c1ccc(O)cc1)c1ccccc1; > 92.4 µM

### Prompt Can you look up the measured TGI of N#CCCN(CCC#N)c1ccc(/C=C2\N=C(c3ccccc3)N(c3ccc(Cl)cc3)C2=O)cc1 for me?
### Response > 100 µM

### Prompt Can you look up the measured TGI of O=S(=O)(CCOCc1ccc(-c2ccc3ncnc(Nc4ccc(OCc5cccc(F)c5)c(Cl)c4)c3c2)o1)c1ccccc1 for me?
### Response > 25 µM

### Prompt Can you look up the measured TGI of C=CCNC(=S)/N=C/c1c(O)c2ccccc2oc1=O for me?
### Response > 100 µM

###

Catalogue of TGI values
Test system: SK-OV-3 ovarian
Experiment: NCI tumour cell line growth inhibition, 48 h

1. CCCNC(=O)CCC(C)[C@H]1CCC2C3C(C[C@H](OC(C)=O)[C@@]21C)[C@@]1(C)CCC2(C[C@H]1C[C@H]3OC(C)=O)OOC1(CCC(C)CC1)OO2 (some centres undefined); > 100 µM
2. COc1ccc(/C=C2/CCc3cc4ccc(OC)cc4[o+]c32)c(O)c1; 25.3 µM
3. COC(=O)[C@]12CC[C@H]3CN(C(=O)OCc4ccccc4)[C@H]([C@H]31)[C@H](c1ccco1)N2S(=O)(=O)c1ccc(C)cc1; > 100 µM

In the following, a different compound is considered.
### Prompt Can you look up the measured TGI of CC(=O)OC1COC(n2c(=S)n(-c3ccccc3)c(=O)c3cc(Br)ccc32)C(OC(C)=O)C1OC(C)=O (centres undefined) for me?
### Response > 100 µM

###

Tested on: NCI-H226 lung
Assay: NCI tumour cell line growth inhibition, 48 h
measurementType: GI50

Example results:
1. CN(C)Cc1c[nH]c2c(NCCN)c3c(c(NCCN)c12)C(=O)c1ccccc1C3=O; 1.56 µM
2. O=c1c2c3c(sc2n2c(-c4cc(-c5ccccc5)nn4-c4ccccc4)nnc2n1Cc1ccccc1)CCCC3; > 100 µM
3. CC1CCCc2c1nn(C(=O)/C=C(\N)c1ccccc1)c2N (configuration not stated); 16.5 µM
4. CCSc1nc(N)c2cn[nH]c2n1; 16.9 µM
5. COc1ccc(CC(C)C(C)Cc2ccc(OC)c(OC)c2)cc1OC (configuration not stated); 908 µM

### Prompt Can you look up the measured GI50 of CC(=O)N[C@H](C(=O)N[C@@H](CCCNC(=N)N)C(=O)N[C@@H](CCCCN)C(=O)N[C@@H](CCCNC(=N)N)C(=O)N[C@]1(C)CCCCCC/C=C\CCC[C@@](C)(C(=O)N[C@@H](CCCNC(=N)N)C(=O)N[C@@H](CCC(=O)O)C(=O)N[C@@H](CC(C)C)C(=O)N[C@H](C(=O)N[C@@H](CCC(=O)O)C(N)=O)C(C)C)NC(=O)[C@H](CCC(N)=O)NC(=O)[C@H](CC(C)C)NC(=O)[C@H](CC(C)C)NC(=O)[C@H](CCCNC(=N)N)NC(=O)[C@H](CCCNC(=N)N)NC(=O)[C@H](CC(C)C)NC1=O)C(C)C for me?
### Response 2.43 µM

### Prompt Can you look up the measured GI50 of O=C(O)CCC(NC(=S)S)C(=O)O.[Na+].[Zn+2] (configuration not stated) for me?
### Response > 50 µM

###

Catalogue of TGI values
Test system: SW-620 colon
Assay: NCI tumour cell line growth inhibition, 48 h

Example results:
1. COc1ccc(/C=C2/CCc3cc4ccc(OC)cc4[o+]c32)c(O)c1; 5.09 µM
2. CSc1c(C#N)c(N)n2c1C(=O)N(c1ccccc1)C2=S; > 100 µM
3. NC(=O)/C=C/C(=O)O; > 5000 µM

In the following, a different molecule is considered.
### Prompt Can you look up the measured TGI of COc1nc(C#CCC(C)O)nc(OC)n1 (configuration not stated) for me?
### Response 47.7 µM

# credit: PubChem BioAssay (NCI)
